Target: dopamine transporter (DAT) (Homo sapiens)
Construct: expressed in transfected cells; host or cells: HEK-293
Test: Dopamine reuptake inhibition, [3H]-DA, HEK-293 cells transfected with dopamine transporter cDNA
Format: cell-based
Settings: compound 1 μM; 20-30 nM [3H]-DA; relative to control without compound = 100%; lower value = more inhibition
Listed compounds paired with reported Triple reuptake inhibition (Ratio %) DAT
Reported property: Triple reuptake inhibition (Ratio %) DAT

* CCCCNc1ccc(S(=O)(=O)NCCCN2CCC(Cc3ccccc3)CC2)cc1 | 93.59
* O=S(=O)(NCCN1CCC(Cc2ccccc2)CC1)c1ccc(O)cc1 | 65.88
* CCCCOc1ccc(S(=O)(=O)NCCN2CCC(c3c[nH]c4ccccc34)CC2)cc1 | 54.56
* O=S(=O)(NCCN1CCN(c2ccc(Cl)cc2)CC1)c1ccc(-c2ccccc2)cc1 | 68.53
* O=S(=O)(NCCCN1CCC(CCCc2ccccc2)CC1)c1ccc(-c2ccc(F)cc2)cc1 | 76.23
* O=S(=O)(NCCCCN1CCC(Cc2ccccc2)CC1)c1ccc(-c2ccccc2)cc1 | 25.71
* CCCCOc1ccc(S(=O)(=O)N2CCC(CCc3ccccc3)CC2)cc1 | 109.25
* CCCCOc1ccc(S(=O)(=O)NCCCN2CCN(CC3CCOCC3)CC2)cc1 | 111.51
* O=S(=O)(NCCN1CCC(c2ccccc2)CC1)c1cccc2ccccc12 | 80.21
* CCCCOc1ccc(S(=O)(=O)NCCCN2CCC(c3cccc(Cl)c3Cl)CC2)cc1 | 66.67
* CCCCOc1ccc(S(=O)(=O)NCCN2CCC(c3c[nH]c4ccc(OC)cc34)CC2)cc1 | 90.67

###

Biological target: dopamine transporter (DAT) (Homo sapiens, UniProt Q01959)
Construct: expressed in transfected cells; host or cells: HEK-293
Sequence (Q01959 whole entry, species assumed): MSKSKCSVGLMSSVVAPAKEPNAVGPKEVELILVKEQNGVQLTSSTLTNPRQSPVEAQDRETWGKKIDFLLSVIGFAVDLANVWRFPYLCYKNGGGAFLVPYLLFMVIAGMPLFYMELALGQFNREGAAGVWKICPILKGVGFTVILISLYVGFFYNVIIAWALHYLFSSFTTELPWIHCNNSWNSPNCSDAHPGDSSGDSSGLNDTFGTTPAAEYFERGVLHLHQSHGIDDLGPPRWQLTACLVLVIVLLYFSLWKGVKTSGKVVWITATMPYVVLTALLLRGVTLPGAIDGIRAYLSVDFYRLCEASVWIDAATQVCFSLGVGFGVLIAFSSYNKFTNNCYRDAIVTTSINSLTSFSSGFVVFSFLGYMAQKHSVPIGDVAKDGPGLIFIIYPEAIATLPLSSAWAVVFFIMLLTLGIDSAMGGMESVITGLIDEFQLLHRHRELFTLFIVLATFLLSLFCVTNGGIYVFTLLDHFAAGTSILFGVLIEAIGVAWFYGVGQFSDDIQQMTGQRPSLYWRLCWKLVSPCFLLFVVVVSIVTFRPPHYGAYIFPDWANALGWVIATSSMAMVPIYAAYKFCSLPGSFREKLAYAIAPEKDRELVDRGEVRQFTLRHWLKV
Experiment: Dopamine reuptake inhibition, [3H]-DA, HEK-293 cells transfected with dopamine transporter cDNA
Assay type: cell-based
Conditions: concentration at which Ratio % is 50%; 6 concentrations 1 nM to 1 μM; read-out: Triple reuptake inhibition (IC50, μM) DAT
# label = Criterion met if IC50 < 2 µM else Criterion not met

* CCCCOc1ccc(S(=O)(=O)NCCCN2CCC(Cc3ccc(OC)cc3)CC2)cc1 [Example 30] | Criterion not met
* O=S(=O)(NCCN1CCC(Cc2ccccc2)CC1)c1ccc2ccccc2c1 [Example 38] | Criterion met
* O=S(=O)(NCCCN1CCC(Cc2ccccc2)CC1)c1ccc2ccccc2n1 [Example 57] | Criterion not met
* O=C(CCN1CCCCC1)Nc1ccc(S(=O)(=O)NCCCN2CCC(Cc3ccccc3)CC2)cc1 [Example 17] | Criterion not met
* O=S(=O)(NCCCN1CCC(Cc2ccccc2)CC1)c1ccc(-c2ccccc2)cc1 [Example 56] | Criterion met
* CCCCOc1ccc(S(=O)(=O)NCCCN2CCC(c3ccc(Cl)c(Cl)c3)CC2)cc1 [Example 22] | Criterion met
* O=S(=O)(NCCCN1CCC(Cc2ccccc2)CC1)c1ccc(-c2ccc(F)cc2)cc1 [Example 58] | Criterion met
* CCCCOc1ccc(S(=O)(=O)NCCCN2CCC(Cc3cccc(Cl)c3)CC2)cc1 [Example 31] | Criterion met
* O=S(=O)(NCCCN1CCC(Cc2ccccc2)CC1)c1ccc2ccccc2c1 [Example 54] | Criterion met
* CCCCOc1ccc(S(=O)(=O)NCCCN2CCC(Cc3ccccc3)CC2)cc1 [Example 10] | Criterion met
* O=S(=O)(NCCN1CCC(Cc2ccccc2)CC1)c1cc2ccccc2[nH]1 [Example 36] | Criterion met
* O=S(=O)(NCCN1CCC(Cc2ccccc2)CC1)c1ccc(-c2ccccc2)cc1 [Example 40] | Criterion not met
* CCCCOc1ccc(S(=O)(=O)NCCCN2CCC(Cc3ccc(Cl)c(Cl)c3)CC2)cc1 [Example 20] | Criterion not met
* O=S(=O)(NCCCN1CCC(Cc2ccccc2)CC1)c1ccc(Oc2ccccc2)cc1 [Example 13] | Criterion met
* CCCCOc1ccc(S(=O)(=O)NCCCN2CCC(Cc3ccc(F)c(F)c3)CC2)cc1 [Example 21] | Criterion not met

###

Molecular target: serotonin transporter (SERT) (Homo sapiens, UniProt P31645)
Construct: expressed in transfected cells; host or cells: HEK-293
Sequence (P31645 whole entry, species assumed): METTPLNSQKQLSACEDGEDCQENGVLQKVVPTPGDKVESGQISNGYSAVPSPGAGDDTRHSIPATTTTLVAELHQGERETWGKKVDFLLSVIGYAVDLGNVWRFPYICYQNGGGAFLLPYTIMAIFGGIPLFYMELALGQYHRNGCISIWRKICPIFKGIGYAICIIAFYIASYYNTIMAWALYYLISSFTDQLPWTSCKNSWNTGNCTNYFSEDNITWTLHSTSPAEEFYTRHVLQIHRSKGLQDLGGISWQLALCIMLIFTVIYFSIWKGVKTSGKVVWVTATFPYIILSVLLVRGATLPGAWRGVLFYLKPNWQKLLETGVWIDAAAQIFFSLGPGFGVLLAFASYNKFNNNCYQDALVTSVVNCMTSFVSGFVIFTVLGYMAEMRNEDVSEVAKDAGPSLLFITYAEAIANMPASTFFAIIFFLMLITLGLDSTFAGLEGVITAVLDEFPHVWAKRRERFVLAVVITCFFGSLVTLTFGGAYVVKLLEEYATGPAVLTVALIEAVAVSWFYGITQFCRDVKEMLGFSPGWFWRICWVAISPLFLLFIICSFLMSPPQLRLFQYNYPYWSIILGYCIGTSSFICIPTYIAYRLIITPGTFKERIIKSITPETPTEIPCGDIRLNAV
Test: Serotonin reuptake inhibition, [3H]-5-HT, HEK-293 cells transfected with 5-HT transporter cDNA
Type: cell-based
Details: compound 1 μM; [3H]-5-HT; relative to control without compound = 100%; lower value = more inhibition
Reported property: Triple reuptake inhibition (Ratio %) SERT

- CCCCOc1ccc(S(=O)(=O)NCCCN2CCC(c3ccc(Cl)c(Cl)c3)CC2)cc1: 38.07%
- O=S(=O)(NCCN1CCN(Cc2ccccc2)CC1)c1cccc2ccccc12: 49.64%
- CCCCOc1ccc(S(=O)(=O)NCCCN2CCC(Cc3ccc(Cl)c(Cl)c3)CC2)cc1: 40.46%

###

Target: serotonin transporter (SERT) (Homo sapiens, UniProt P31645)
Construct: expressed in transfected cells; host or cells: HEK-293
Test: Serotonin reuptake inhibition, [3H]-5-HT, HEK-293 cells transfected with 5-HT transporter cDNA
Format: cell-based
Settings: compound 1 μM; [3H]-5-HT; relative to control without compound = 100%; lower value = more inhibition
Reported property: Triple reuptake inhibition (Ratio %) SERT

- O=S(=O)(NCCN1CCN(Cc2ccccc2)CC1)c1ccc2ccccc2c1 [Example 46]: 49.64
- O=S(=O)(NCCCN1CCN(c2ccc(Cl)cc2)CC1)c1cccc2ccccc12 [Example 71]: 47.19
- O=S(=O)(NCCCN1CCC(c2ccccc2)CC1)c1cccc2ccccc12 [Example 63]: 64.15
- CCCCOc1ccc(S(=O)(=O)NCCCN2CCC(Cc3ccc(F)cc3)CC2)cc1 [Example 32]: 30.80
- CCCCOc1ccc(S(=O)(=O)N2CCC(CCc3ccccc3)CC2)cc1 [Example 9]: 101.11
- CCCCOc1ccc(S(=O)(=O)N2CCC(c3c[nH]c4ccccc34)CC2)cc1 [Example 5]: 106.55
- CCCCOc1ccc(S(=O)(=O)NCCCN2CCC(Cc3ccc(Cl)cc3)CC2)cc1 [Example 28]: 26.63
- O=S(=O)(NCCCN1CCC(Cc2ccccc2)CC1)c1ccc2ccccc2c1 [Example 54]: 46.95
- O=S(=O)(NCCN1CCC(Cc2ccccc2)CC1)c1cc2ccccc2[nH]1 [Example 36]: 72.85
- O=S(=O)(NCCN1CCN(c2ccc(Cl)cc2)CC1)c1ccc2ccccc2c1 [Example 50]: 45.16
- O=S(=O)(NCCCN1CCN(Cc2ccccc2)CC1)c1cccc2ccccc12 [Example 67]: 49.64
- CCCCOc1ccc(S(=O)(=O)NCCCN2CCC(Cc3ccccc3)CC2)cc1 [Example 10]: 24.45
- CCCCOc1ccc(S(=O)(=O)NCCN2CCC(c3c[nH]c4ccc(C)cc34)CC2)cc1 [Example 7]: 93.29

###

Molecular target: norepinephrine transporter (NET) (Homo sapiens, UniProt P23975)
Construct: expressed in transfected cells; host or cells: HEK-293
Sequence (P23975 whole entry, species assumed): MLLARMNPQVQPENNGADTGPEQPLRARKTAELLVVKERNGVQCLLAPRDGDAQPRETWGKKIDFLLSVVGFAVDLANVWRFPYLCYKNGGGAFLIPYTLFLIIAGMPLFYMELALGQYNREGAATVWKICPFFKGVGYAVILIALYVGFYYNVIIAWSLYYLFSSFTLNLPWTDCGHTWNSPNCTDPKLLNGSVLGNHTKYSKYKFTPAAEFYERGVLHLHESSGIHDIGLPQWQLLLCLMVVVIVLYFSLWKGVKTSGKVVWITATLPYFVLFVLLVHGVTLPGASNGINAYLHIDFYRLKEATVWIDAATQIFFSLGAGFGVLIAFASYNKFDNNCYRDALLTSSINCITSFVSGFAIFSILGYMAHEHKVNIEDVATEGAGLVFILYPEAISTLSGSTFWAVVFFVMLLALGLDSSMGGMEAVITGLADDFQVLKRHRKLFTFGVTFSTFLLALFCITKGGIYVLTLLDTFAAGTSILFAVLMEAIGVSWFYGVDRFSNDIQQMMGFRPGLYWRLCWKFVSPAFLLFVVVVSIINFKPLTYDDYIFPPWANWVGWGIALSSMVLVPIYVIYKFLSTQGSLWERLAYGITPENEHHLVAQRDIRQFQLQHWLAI
Assay: Norepinephrine reuptake inhibition, [3H]-NE, HEK-293 cells transfected with NE transporter cDNA
Type: cell-based
Conditions: compound 1 μM; [3H]-NE; relative to control without compound = 100%; lower value = more inhibition
Rule: t for Triple reuptake inhibition (Ratio %) NET not less than 50%, f for anything less.

• O=S(=O)(NCCCN1CCC(Cc2ccccc2)CC1)c1ccc2ccccc2c1 [Example 54] = f
• O=S(=O)(NCCCN1CCN(CCCc2ccccc2)CC1)c1ccc(-c2ccccc2)cc1 [Example 76] = f
• CCCCOc1ccc(S(=O)(=O)NCCCN2CCC(Cc3ccc(Cl)cc3)CC2)cc1 [Example 28] = t
• O=S(=O)(NCCN1CCC(Cc2ccccc2)CC1)c1ccc(O)cc1 [Example 1] = t
• O=S(=O)(NCCN1CCC(Cc2ccccc2)CC1)c1ccc(Oc2ccccc2)cc1 [Example 3] = t
• CCCCOc1ccc(S(=O)(=O)N2CCC(CCc3ccccc3)CC2)cc1 [Example 9] = t
• O=S(=O)(NCCN1CCN(Cc2ccccc2)CC1)c1ccc2ccccc2c1 [Example 46] = t
• O=S(=O)(NCCCN1CCC(c2ccccc2)CC1)c1ccc2ccccc2n1 [Example 65] = f
• O=S(=O)(NCCN1CCC(Cc2ccccc2)CC1)c1cc2ccccc2[nH]1 [Example 36] = t
• O=S(=O)(NCCCN1CCC(Cc2ccccc2)CC1)c1cccc2ccccc12 [Example 55] = f
• CCCCOc1ccc(S(=O)(=O)NCCN2CCC(Cc3ccc(Cl)c(Cl)c3)CC2)cc1 [Example 4] = t
• COc1ccc(S(=O)(=O)NCCCN2CCC(Cc3ccccc3)CC2)cc1 [Example 14] = f
• O=S(=O)(NCCN1CCN(c2ccc(Cl)cc2)CC1)c1ccc(-c2ccccc2)cc1 [Example 52] = t
• O=S(=O)(NCCN1CCN(c2ccc(Cl)cc2)CC1)c1ccc2ccccc2c1 [Example 50] = t
• O=S(=O)(NCCN1CCN(c2ccc(Cl)cc2)CC1)c1ccc2ccccc2n1 [Example 53] = t
• CCCCOc1ccc(S(=O)(=O)NCCCN2CCN(c3cccc(Cl)c3Cl)CC2)cc1 [Example 24] = t
• O=S(=O)(NCCN1CCC(c2ccccc2)CC1)c1cccc2ccccc12 [Example 43] = f
